Ref: patent US20240043435A1

Target: TYK2-JH2 (aa 575-869, in-house) protein (Homo sapiens, UniProt P29597)
Construct: TYK2-JH2 (aa 575-869, in-house) protein; made in house
Sequence (P29597 575-869): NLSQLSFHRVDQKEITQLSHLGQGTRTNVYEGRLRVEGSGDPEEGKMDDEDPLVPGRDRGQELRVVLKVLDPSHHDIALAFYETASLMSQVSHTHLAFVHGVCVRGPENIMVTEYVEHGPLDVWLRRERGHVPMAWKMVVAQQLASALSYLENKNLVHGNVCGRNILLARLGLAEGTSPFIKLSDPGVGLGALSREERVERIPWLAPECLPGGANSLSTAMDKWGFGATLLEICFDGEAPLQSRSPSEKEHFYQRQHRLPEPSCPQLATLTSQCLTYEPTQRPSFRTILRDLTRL
Assay: TYK2-JH2 biochemical assay (HTRF probe displacement)
Assay type: binding
Conditions: Biochemical assay; read-out: TYK2-JH2 IC50
Procedure: Assay A: TYK2-JH2 Biochemical Assay Compounds disclosed herein were tested for blocking of TYK2-JH2 (aa 575-869, in-house) protein with its probe in an assay based on Homogeneous Time Resolved Fluorescence. […] The HTRF signals (ex337 nm, em620 nm/665 nm) were read on BMG PHERAstar FS instrument. The inhibition percentage of TYK2 interaction with its probe in presence of increasing concentrations of compounds was calculated based on the ratio of fluorescence at 615 nm to that at 665 nm. […]
pIC50: −log10 of the molar value.
measured_metric: pIC50

Worked cases, answers included:
>  <compound>
CC(=O)Nc1cc(Nc2cc(-c3cnccc3C#N)cc(S(C)(=O)=O)n2)c(-c2ccc3c(n2)OCC(C)(C)O3)cn1 [Example Q115]

>  <tested_on>
TYK2-JH2 (aa 575-869, in-house) protein (Homo sapiens, UniProt P29597)

>  <measured_metric>
pIC50

>  <numeric_readout>
10.47

$$$$
>  <compound>
CC(=O)Nc1cc(Nc2cc(OC(C)C)cc(S(C)(=O)=O)n2)c(-c2ccc(C(C)(C)O)cn2)cn1 [Example H2]

>  <tested_on>
TYK2-JH2 (aa 575-869, in-house) protein (Homo sapiens, UniProt P29597)

>  <measured_metric>
pIC50

>  <numeric_readout>
10.44

$$$$
>  <compound>
CCOc1cc(Nc2cc(NC(C)=O)ncc2-c2ccc(C(C)(C)O)cn2)nc(S(C)(=O)=O)c1 [Example H33]

>  <tested_on>
TYK2-JH2 (aa 575-869, in-house) protein (Homo sapiens, UniProt P29597)

>  <measured_metric>
pIC50

>  <numeric_readout>
10.72

$$$$
>  <compound>
COCCOc1cc(Nc2cc(NC(C)=O)ncc2-c2cc(N3CCOCC3)n(C)n2)nc(S(C)(=O)=O)c1 [Example O2]

>  <tested_on>
TYK2-JH2 (aa 575-869, in-house) protein (Homo sapiens, UniProt P29597)

>  <measured_metric>
pIC50

>  <numeric_readout>
10.80

$$$$

a: COc1ccc(S(C)(=O)=O)nc1Nc1cc(NC(C)=O)ncc1-c1ccn(C)n1 [Example J23]
b: CC(=O)Nc1cc(Nc2cccc(S(C)(=O)=O)c2)c(-c2cc(C(C)(C)O)ccn2)cn1 [Example B9]
c: CC(=O)Nc1cc(Nc2cc(OC(C)C)cc(S(C)(=O)=O)n2)c(-c2cc(C)n(C)n2)cn1 [Example N2]
// smallest pIC50 at index 0, largest at the end Answer by listing the labels in the requested order.
b, a, c

P: CC(=O)Nc1cc(Nc2cc(C)cc(S(C)(=O)=O)n2)c(-c2ccn(C3CCOC3)n2)cn1 (stereo not drawn) [Example M31]
Q: CC(=O)Nc1cc(Nc2cc(OC(C)C)cc(S(C)(=O)=O)n2)c(-c2ccc(F)cn2)cn1 [Example F18]
Just curious, which one has the larger pIC50 reading, P or Q ? Answer format: the label of the selected item.
P
(P: 10.51, Q: 10.28)

a: COC(C)COc1cc(Nc2cc(NC(C)=O)ncc2-c2ccc(C(C)(C)O)cn2)nc(S(C)(=O)=O)c1 (stereo not drawn) [Example H7]
b: COCc1ccc(-c2cnc(NC(C)=O)cc2Nc2cc(COC)cc(S(C)(=O)=O)n2)nc1 [Example E9]
For the two items a and b , which reports the higher pIC50 value? Select an item and report its label.
b
